// cytotoxicity at 70.5 h lookup, one value per entry
PROTOCOL_TEXT: Human HepG2 cell viability assay in 384 well format
Format: toxicity, cell-based
Parameters: dose 125 nL, time 70.5 hour; concentration not given beside the values
SETTINGS: HepG2 cells, read-out: Inhibition
EXPERIMENTAL_READOUT: cytotoxicity at 70.5 h (%)

COMPOUND	UNITS	ASSAY_VALUE
CCCn1nccc1C(=O)Nc1nc(C)c(C)s1	%	11.9
CS(=O)(=O)NCCCSCc1cccc2cccnc12	%	-9.28
COc1ccccc1S(=O)(=O)N1CCC2(CC1)OCCCC2O (stereo not given)	%	-6.84
O=C(c1ccc(F)c(F)c1)N1CCC(Cn2cc(CO)nn2)CC1	%	-3.06
COc1cccn(CC(=O)N2CCC3(CCNCC3)C2)c1=O	%	-13.1

====

PROTOCOL_TEXT: Human HepG2 cell viability assay in 384 well format
Format: toxicity, cell-based
Design: dose 125 nL, time 70.5 hour; concentration not given beside the values
SETTINGS: HepG2 cells, read-out: Inhibition

COMPOUND	cytotoxicity at 70.5 h [%]
CO[C@@H]1CCN(c2ncccn2)[C@H]1Cc1ccccc1	1.42
CN(Cc1cccc(C(N)=O)c1)c1ncc(C#N)cc1Cl	-9.21
CN1CCCc2cc(CNC(=O)c3cc[n+]([O-])cc3)ccc21	-6.17
Cc1ncsc1C(=O)N1CCCCC1c1cc2nc(C)c(C)c(O)n2n1 (stereo not drawn)	-4.23
CC(C)(C)c1n[nH]cc1CN1CCc2nc3ccsc3c(=O)n2CC1	12.1
Cc1nnc(SCCNC(=O)Cn2cnc3ccccc3c2=O)s1	-4.19
Cc1cc(N2CCCC(c3nncn3C3CC3)C2)ncn1 (stereo not drawn)	-2.44
CN(C)C(=O)C1SCCc2ccccc21 (stereo not drawn)	-6.79
CC(c1nc(C2CC2)no1)N1CCN(Cc2ccccc2F)CC1 (stereo not drawn)	-6.67
CN(C)C(=O)COC[C@]12COC[C@H]1CN(Cc1ccco1)C2	0.692
O=C(CC1CCN(c2cccnn2)CC1)Nc1cccnc1	-6.44
CNS(=O)(=O)Cc1ccc(CNc2ccc(C#N)cn2)cc1	-6.5
CC(C)C[C@H](NC(=O)NC1CCS(=O)(=O)C1)C(=O)NCc1cccnc1 (stereo partly drawn)	-16
CC(=O)N1Cc2nccn2CC(CNC(=O)c2cccnc2)C1 (stereo not drawn)	-11.5
NC(=O)C1CCCN1Cc1cccc(NC(=O)c2ccc(Cl)cc2F)c1 (stereo not drawn)	-20.5
COc1cccc(NC(=O)NC(C)(C)c2noc(C)n2)c1	-4.79
CCc1nc(C)c(CN2CCOC(Cc3ccccc3Cl)C2)[nH]1 (stereo not drawn)	-6.82
CCc1ccc(Cn2nccc2NC(=O)C2CCS(=O)(=O)C2)cc1 (stereo not drawn)	-3.51

====

// cytotoxicity at 70.5 h lookup, one value per entry
PROTOCOL_TEXT: Human HepG2 cell viability assay in 384 well format
Format: toxicity, cell-based
Set-up: dose 125 nL, time 70.5 hour; concentration not given beside the values
SETTINGS: HepG2 cells, read-out: Inhibition

COMPOUND	UNITS	cytotoxicity at 70.5 h
CC(C)C(Sc1nnnn1C1CC1)C(=O)NCc1ccccc1 (configuration not stated)	%	-7.04
CCNc1nnc(SCc2nnc(C(C)(C)C)o2)s1	%	-8.88
COc1nc2c(cc1C(=O)N1CC[C@H](CO)[C@@H](O)C1)CCC2	%	-16.1
Cc1ccc(-c2noc(C(C)(C)NS(C)(=O)=O)n2)cc1F	%	-2.69
Cc1ccc(-c2nc(CNC(C)Cn3cccn3)cs2)o1 (configuration not stated)	%	-3.26
O=C(NCC(=O)N1CCCCC1)c1sccc1C1CC1	%	7.84
CCc1nc(CN2CCOC(Cn3nc(C)nc3C)C2)no1 (configuration not stated)	%	3.11

====

PROTOCOL_TEXT: Human HepG2 cell viability assay in 384 well format
Assay type: toxicity, cell-based
Set-up: dose 125 nL, time 70.5 hour; concentration not given beside the values
SETTINGS: HepG2 cells, read-out: Inhibition
// cytotoxicity at 70.5 h lookup, one value per entry

COMPOUND	cytotoxicity at 70.5 h
CCc1nccn1-c1cccc(C2CCCN(C3CCCCC3)C2)n1 (stereo not given)	-0.595%
COc1cccc(C(C)N2CCN(S(=O)(=O)CCCF)CC2)c1 (stereo not given)	34.9%
c1cnn(CC2CN(Cc3nnc(C4CC4)o3)CCO2)c1 (stereo not given)	-4.26%
COC(=O)c1ccc(CNCc2cn(C)nc2C)cc1	1.28%
Cc1nn2cccnc2c1C(=O)N1CCCC(Nc2ccccc2)C1 (stereo not given)	-0.861%
CC(=O)N1CCCC(Cc2nccn2C)C1 (stereo not given)	-5.45%
O=C(CCNC(=O)C1CCCC1)NCc1ccccc1Cn1cncn1	-7.76%
COc1cccc(-c2nc(CNCCc3cccnc3)cs2)c1	-19.3%
CCC(C)NS(=O)(=O)Cc1cccc(NC(=O)c2ccc[nH]2)c1 (stereo not given)	-2.71%
Cc1ccc(-c2nc(CN3CCN(C(=O)C4CC4)CC3)cs2)o1	-5.72%
CN(C)CC(=O)N1CCC2(CC1)COc1ccccc1S(=O)(=O)N(C)C2	0.316%
CCc1nc(C)c(-c2nccn2CC2CCCCO2)[nH]1 (stereo not given)	-10.5%
CCS(=O)(=O)N1C[C@@H](O)[C@H](N(C)Cc2ccc(F)cc2)C1	0.693%
COCC1CN(c2ncc(F)cn2)Cc2cnn(C)c21 (stereo not given)	-4.56%
O=C(c1cc[nH]n1)N1CCCC1c1ccccn1 (stereo not given)	-4.38%
CCCc1noc(C2CC(=O)N(C(C)(C)C)C2)n1 (stereo not given)	-16%
CCc1noc(C(C)N2CCN(Cc3nnc(C4CC4)o3)CC2)n1 (stereo not given)	-14.9%
COc1cc(C2SCC(=O)Nc3ccsc32)cc(OC)c1OC (stereo not given)	-14.5%
c1cncc(-c2ccc3c(c2)C2(CC3)CCN(c3nncs3)CC2)c1	-13.1%
CN(C)C(C(=O)NCC1(O)CCCCC1)c1c(F)cccc1F (stereo not given)	-13%

====

PROTOCOL_TEXT: Human HepG2 cell viability assay in 384 well format
Format: toxicity, cell-based
Design: dose 125 nL, time 70.5 hour; concentration not given beside the values
SETTINGS: HepG2 cells, read-out: Inhibition
// cytotoxicity at 70.5 h lookup, one value per entry

MOLECULE	cytotoxicity at 70.5 h, %
Cc1noc(CCCC(=O)N(CC2CCOC2)C2CC2)n1 (stereo not given)	-11
CCCn1cnnc1CN(C)C(=O)CCC(=O)Nc1cc(C)ccc1F	-6.48
Cc1nc(-c2ccco2)ccc1C(=O)NCCN1CCN(C)CC1	-114
c1csc(CN2CCC3(CCOCC3COCC3CC3)CC2)n1 (stereo not given)	-3.9
CN(C)c1ccccc1C(=O)N1C[C@@H](CN2CCC(O)CC2)[C@@H](CO)C1	1.37
CCn1nnc(NCc2ccccc2OCc2ccc(Cl)cc2)n1	-7.27
CO[C@H]1CCN(C(=O)Cc2ccsc2)[C@@H]2CN(CC3CC3)C[C@H]12	-4.21
NC(=O)NC1CCN(Cc2ccc3c(c2)CCC3)CC1	-5.94
O=C(NCc1ccccn1)[C@]12COC[C@H]1CN(C1CCC1)C2	-10.3
C=C(C)COc1ccccc1C(=O)N1CCC2(CC1)CN(C)CCN2C	-11.5
COc1cc2nc3n(c(=O)c2cc1OC)CCN(C(=O)C(C)(C)C)CC3	-1.33
CC(NC(=O)Nc1ccc(-n2cncn2)cc1)C(=O)NC(C)(C)C (stereo not given)	-29.6
CC(C)(CNC(=O)C1(c2ccccc2)CCOCC1)C(=O)O	-1.55
O=C1CCNc2cc3c(cc2CN1CC1CC1)OCO3	0.558
CN1CCCC(C(=O)N2CCC(Oc3ccc(C#N)cn3)CC2)C1 (stereo not given)	-5.58

====

PROTOCOL_TEXT: Human HepG2 cell viability assay in 384 well format
Type: toxicity, cell-based
Parameters: dose 125 nL, time 70.5 hour; concentration not given beside the values
SETTINGS: HepG2 cells, read-out: Inhibition
Threshold check on cytotoxicity at 70.5 h: strictly below -10% is TRUE; on or above -10% is FALSE.

COMPOUND	CATEGORY
NC(=O)CN1CCCN(C(=O)CCOc2ccccc2Cl)CC1	FALSE
NC(=O)c1ccc(N2CCN(Cc3cccc4nsnc34)CC2)nc1	FALSE
CN(C)C(=O)CN1CCC2(CCN(CC3CC3)CC2)C1=O	FALSE
CC(c1cccc(Cl)c1)N(C)Cc1nc2c(cnn2C)c(=O)[nH]1 (stereo not drawn)	FALSE
CN1CCN(C(=O)c2ccc(=O)n(C)c2)c2ccccc21	FALSE
CCCc1nnc(NC(=O)N2CCCC2c2ccncc2)s1 (stereo not drawn)	FALSE
Cc1nccn1C1CCCN(C(=O)c2ccc(N(C)C)nc2)C1 (stereo not drawn)	FALSE
Cc1ccc2c(c1)CCC2NCc1c(C)nn(CCO)c1C (stereo not drawn)	FALSE
Cc1ccsc1C(O)CNC(=O)Cc1ccc(S(=O)(=O)C(C)C)cc1 (stereo not drawn)	TRUE
O=C1[C@@H]2CCN(CC3CC3)C[C@@H]2OCCN1c1ccsc1	FALSE
Cc1nc(NC2CCCC2)cc(C2CCN2C(=O)c2cccnc2)n1 (stereo not drawn)	FALSE
COc1ccc2cc(NC(=O)CCCNc3ncccn3)cnc2c1	TRUE

Every entry's value here was drawn from ChEMBL document CHEMBL3507680.
